Target: AgHse1
Assay: SPOT peptide array binding signal intensity (averaged, normalized) (arbitrary units (background-subtracted, floor 0; scale differs between SH3 domains)); higher = stronger binding of the SH3 domain to the peptide
Answer each item with its documented SPOT peptide array binding signal intensity.
I'd appreciate a reply containing only the number, no unit.

Quick one: SPOT peptide array binding signal intensity of RRTRLRPPTPLSQLL ?
866

Quick one: SPOT peptide array binding signal intensity of SRYRRPLTLLLLKPF ?
1270

Quick one: SPOT peptide array binding signal intensity of QGYPRQPQRPQRYHP ?
17.5

Quick one: SPOT peptide array binding signal intensity of NGRRRPKFRVQLSGN ?
1600

Quick one: SPOT peptide array binding signal intensity of LPMNIQPDLPPRKIM ?
139

Quick one: SPOT peptide array binding signal intensity of VKPRQLFPIPLNKVD ?
60.5

Quick one: SPOT peptide array binding signal intensity of RPKRRAPPPVPKKPS ?
294

Quick one: SPOT peptide array binding signal intensity of IKTRSVPKIPSIESV ?
19.5

Quick one: SPOT peptide array binding signal intensity of KNRKNLPTIPIRLSG ?
206

Quick one: SPOT peptide array binding signal intensity of LLIRWLILMPLVGSR ?
2550

Quick one: SPOT peptide array binding signal intensity of LYKRKPILLPDPKPL ?
93

Quick one: SPOT peptide array binding signal intensity of KRRTSLFPWLHKPGI ?
1230

These measurements were taken from the supplement of paper PMC4466140.
